target: Prothrombin (Homo sapiens); assay: Thrombin 1536 HTS Dose Response Confirmation. [Related pubchem assays: 1046 (Thrombin 1536 HTS; hits were confirmed in this assay)]; type: functional
Active and inactive are the calls of the source. No stated cut-off is given here; in the data, actives have a measured IC50 and inactives only a lower limit.
Each entry below carries its reported IC50.

Answered examples (7):
O=C(c1cc2ccccc2[nH]1)N1CCOCC1    > 50 µM (not active)
COCCCNC(=O)/C(=C\c1cccn1C)NC(=O)c1cccs1    > 50 µM (inconclusive)
O=C(Nc1ccc(Cc2ccncc2)cc1)c1ccco1    > 50 µM (not active)
O=C(NC1CCCCC1)C1CCN(c2nnnn2-c2ccccc2)CC1    > 50 µM (not active)
Cc1cc(NS(=O)(=O)c2ccc(NC(=O)CSc3nnc(-c4ccco4)n3N)cc2)nc(C)n1    > 50 µM (not active)
C=C(CCC(=O)c1ccccc1)C(=O)c1ccccc1    > 50 µM (not active)
O=C(COC(=O)c1ccc(O)cc1)NCCCc1ccccc1    > 50 µM (not active)

Input: Supply reported IC50 belonging to this compound: O=C(N/N=C/c1ccccc1[N+](=O)[O-])c1ccc2[nH]cnc2c1
Output: 2.34 µM (active)
